pIC50: −log10 of the molar value.
Measurement Type: pIC50

Input: Enter recorded pIC50 with Cytochrome P450 2D6 (Homo sapiens, UniProt P10635) for CCC[C@H]1N(C(=O)c2cnccc2C(F)(F)F)CCC[C@@]1(Oc1csc(C(F)(F)F)c1)C(=O)N1CCN(c2ccccc2OCCCC(=O)O)CC1 here.
Sequence (P10635 whole entry): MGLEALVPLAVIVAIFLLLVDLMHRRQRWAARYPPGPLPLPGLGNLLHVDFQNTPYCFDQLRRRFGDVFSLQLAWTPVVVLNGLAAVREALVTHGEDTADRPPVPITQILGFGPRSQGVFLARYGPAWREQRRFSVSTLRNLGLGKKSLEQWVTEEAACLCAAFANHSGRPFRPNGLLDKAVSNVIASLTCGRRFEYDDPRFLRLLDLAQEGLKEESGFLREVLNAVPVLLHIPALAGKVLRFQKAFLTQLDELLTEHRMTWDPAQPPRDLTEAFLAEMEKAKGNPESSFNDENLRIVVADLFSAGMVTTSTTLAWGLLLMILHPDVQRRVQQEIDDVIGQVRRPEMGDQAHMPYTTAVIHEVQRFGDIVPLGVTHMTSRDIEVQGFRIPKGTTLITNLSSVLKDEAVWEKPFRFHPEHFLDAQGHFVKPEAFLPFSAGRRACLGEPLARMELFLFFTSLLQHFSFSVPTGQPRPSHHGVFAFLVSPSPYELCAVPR
Output: < 4.30

###

Measurement Type: IC50

Input: Enter recorded IC50 with Cytochrome P450 2C9 (Homo sapiens, UniProt P11712) for CCC[C@H]1N(C(=O)c2cnccc2C(F)(F)F)CCC[C@@]1(Oc1csc(C(F)(F)F)c1)C(=O)N1CCN(c2ccccc2OCCCC(=O)O)CC1 here.
Sequence (P11712 whole entry): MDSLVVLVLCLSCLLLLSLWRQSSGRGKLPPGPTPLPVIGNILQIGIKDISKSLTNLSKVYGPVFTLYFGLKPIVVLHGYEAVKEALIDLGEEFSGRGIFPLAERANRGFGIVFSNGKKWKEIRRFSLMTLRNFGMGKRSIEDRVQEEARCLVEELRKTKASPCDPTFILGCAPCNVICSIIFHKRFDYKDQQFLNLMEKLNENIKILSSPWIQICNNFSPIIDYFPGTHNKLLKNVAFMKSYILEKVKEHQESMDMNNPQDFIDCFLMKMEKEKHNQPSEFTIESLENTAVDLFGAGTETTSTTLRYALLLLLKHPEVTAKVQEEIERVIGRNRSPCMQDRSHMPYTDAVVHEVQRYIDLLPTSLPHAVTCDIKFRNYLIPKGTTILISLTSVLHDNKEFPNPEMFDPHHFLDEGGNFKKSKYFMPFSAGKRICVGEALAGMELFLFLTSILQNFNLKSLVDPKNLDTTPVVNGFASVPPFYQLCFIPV
Output: > 50 µM

###

Provide the reported IC50 of each item.
- Test System: Tumour suppressor p53/oncoprotein Mdm2 (Homo sapiens, UniProt Q00987)
- Sequence (P04637 whole entry, the tested form may be a part): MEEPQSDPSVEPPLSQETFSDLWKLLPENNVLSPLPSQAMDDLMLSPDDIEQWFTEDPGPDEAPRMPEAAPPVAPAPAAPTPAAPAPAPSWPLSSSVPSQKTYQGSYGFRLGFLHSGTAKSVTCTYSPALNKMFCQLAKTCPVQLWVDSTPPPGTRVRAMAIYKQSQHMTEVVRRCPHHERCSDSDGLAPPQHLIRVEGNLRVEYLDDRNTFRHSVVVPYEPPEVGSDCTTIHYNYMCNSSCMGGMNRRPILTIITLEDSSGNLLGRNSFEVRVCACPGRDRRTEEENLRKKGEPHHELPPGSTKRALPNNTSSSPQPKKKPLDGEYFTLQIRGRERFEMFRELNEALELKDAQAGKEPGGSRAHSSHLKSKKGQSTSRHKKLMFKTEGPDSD
- Sequence (Q00987 whole entry, the tested form may be a part): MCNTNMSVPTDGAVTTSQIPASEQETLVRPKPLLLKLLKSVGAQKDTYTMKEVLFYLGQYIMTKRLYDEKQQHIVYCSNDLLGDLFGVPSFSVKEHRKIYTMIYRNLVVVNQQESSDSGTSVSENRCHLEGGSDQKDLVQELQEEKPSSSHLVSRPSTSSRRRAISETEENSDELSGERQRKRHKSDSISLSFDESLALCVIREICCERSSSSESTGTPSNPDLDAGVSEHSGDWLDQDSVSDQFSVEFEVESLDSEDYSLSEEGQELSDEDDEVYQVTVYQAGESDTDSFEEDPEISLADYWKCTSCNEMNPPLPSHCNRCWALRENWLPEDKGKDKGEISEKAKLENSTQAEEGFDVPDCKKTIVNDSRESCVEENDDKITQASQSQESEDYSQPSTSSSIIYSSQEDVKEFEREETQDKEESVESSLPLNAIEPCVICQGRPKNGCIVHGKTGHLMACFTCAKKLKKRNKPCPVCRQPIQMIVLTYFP
- Test Details: Inhibition of human recombinant His-tagged MDM2 (1 to 118 residues) interaction with FAM-tagged p53-based peptide (unknown origin) incubated for 15 mins by fluorescence polarization assay
- Type: protein assay
# unit: µM | format: bare number

Input: Enter recorded IC50 with Tumour suppressor p53/oncoprotein Mdm2 (Homo sapiens, UniProt Q00987) for CCC[C@@H]1N(C(=O)c2cnccc2C(F)(F)F)CCC[C@]1(Oc1csc(C(F)(F)F)c1)C(=O)N1CCN(c2ccccc2OCC(=O)NC)CC1 (single isomer, unassigned) here.
Output: 0.004

Input: Enter recorded IC50 with Tumour suppressor p53/oncoprotein Mdm2 (Homo sapiens, UniProt Q00987) for C=CC[C@H]1N(C(=O)c2cnccc2C(F)(F)F)CCC[C@@]1(Oc1cc(C2CC2)cs1)C(=O)N1CCN(c2ccccc2OCCCC(=O)O)CC1 here.
Output: 3.5

Input: Enter recorded IC50 with Tumour suppressor p53/oncoprotein Mdm2 (Homo sapiens, UniProt Q00987) for CCC[C@H]1N(C(=O)c2cnccc2C(F)(F)F)CCC[C@@]1(Oc1csc(C(F)(F)F)c1)C(=O)N1CCN(c2ccccc2OC(C)(C)CO)CC1 here.
Output: 0.025

###

- Test Details: Oral bioavailability in mouse at 20 mg/kg
- Type: ADME, organism-based
- Run Conditions: in vivo
Measurement Type: bioavailability (%)
# unit: % | format: bare number

Input: Provide only the value of recorded bioavailability for CCC[C@@H]1N(C(=O)c2cnccc2C(F)(F)F)CCC[C@]1(Oc1ccc(C(F)(F)F)cc1)C(=O)N1CCN(c2ccccc2OCCO)CC1 (single isomer, unassigned)
Output: 92

###

- Test System: Tumour suppressor p53/oncoprotein Mdm2 (Homo sapiens, UniProt Q00987)
- Test Details: Inhibition of human recombinant His-tagged MDM2 (1 to 118 residues) interaction with FAM-tagged p53-based peptide (unknown origin) incubated for 15 mins by fluorescence polarization assay
Measurement Type: IC50 (nM)
# unit: nM | format: bare number

Input: Provide only the value of recorded IC50 for CCC[C@H]1N(C(=O)c2cnccc2C(F)(F)F)CCC[C@@]1(Oc1cc(I)cs1)C(=O)N1CCN(c2ccccc2OCCO)CC1 (racemic)
Output: 90

Input: Provide only the value of recorded IC50 for CCC[C@H]1N(C(=O)c2cnccc2C(F)(F)F)CCC[C@@]1(Oc1csc(C(F)(F)F)c1)C(=O)N1CCN(c2ccccc2OCCCC(=O)O)CC1
Output: 7

Input: Provide only the value of recorded IC50 for CCC[C@H]1N(C(=O)c2cnccc2C(F)(F)F)CCC[C@@]1(Oc1csc(C(F)(F)F)c1)C(=O)N1CCN(c2ccccc2OCC(=O)O)CC1
Output: 2

Input: Provide only the value of recorded IC50 for CCC[C@@H]1N(C(=O)c2cnccc2C(F)(F)F)CCC[C@]1(Oc1cc(C(F)(F)F)n(C)n1)C(=O)N1CCN(c2ccccc2OCCO)CC1 (racemic)
Output: 6300

Input: Provide only the value of recorded IC50 for CCC[C@@H]1N(C(=O)c2cnccc2C(F)(F)F)CCC[C@]1(Oc1cc(C(F)(F)F)cs1)C(=O)N1CCN(c2ccccc2OCCO)CC1 (racemic)
Output: 170

Input: Provide only the value of recorded IC50 for CCC[C@@H]1N(C(=O)c2cnccc2C(F)(F)F)CCC[C@]1(Oc1csc(C(F)(F)F)c1)C(=O)N1CCN(c2ccccc2OCCO)CC1 (single isomer, unassigned)
Output: 15
